Origin of the recorded values: paper PMC10397247

measured on: T1, 4H4038-bH
T1 chain: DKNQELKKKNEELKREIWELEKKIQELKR
experiment summary: two-hybrid library CCNG1;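 also: natural log of median RNA to DNA barcode read ratio; higher means stronger binding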
quantity measured: interaction score
API note: the answer field is a bare number with no unit suffix.

Solved cases (6 shown):
[[record]]
binder = "DKNQELKKEIEELEREIWELEKKNQELKR [4H3592-bH]"
quantity_measured = "interaction score"
recorded_number = -0.403

[[record]]
binder = "DKNQELKKKIEELKREIWELEKENQELER [4H3907-bH]"
quantity_measured = "interaction score"
recorded_number = -0.272

[[record]]
binder = "DKNQELKKKNEELKREIWELEKKIQELKR [4H4038-bH]"
quantity_measured = "interaction score"
recorded_number = 0.656

[[record]]
binder = "DKNQELKKEIEELERENWELEKEIQELER [4H3601-bH]"
quantity_measured = "interaction score"
recorded_number = -1.44

[[record]]
binder = "DENQELEKEIEELERKIWELKKKNQELKR [4H1072-bH]"
quantity_measured = "interaction score"
recorded_number = 0.634

[[record]]
binder = "DENQELEKENEELERKIWELKKEIQELER [4H1193-bH]"
quantity_measured = "interaction score"
recorded_number = 1.52


Just so you know, measured interaction score for DENQELEKKIEELKRKIWELKKENQELER [4H1387-bH] came out at 1.09

Just so you know, measured interaction score for DENQELEKKIEELKRKNWELKKKIQELKR [4H1406-bH] came out at -0.136
